Experiment: folding enthalpy; higher = less favourable; fluorescence melt of hairpins on a sequencing array, two-state fit
Conditions: sodium 0.088 M
Rule: fulfilled for folding enthalpy not less than -30 kcal/mol, not fulfilled for anything less.

>>> class_label("GCAGTGGCGAAAGCCTGC (((..(((....))))))")
"fulfilled"
>>> class_label("GTTTTCGAAAGAACAAC ((((((....))).)))")
"fulfilled"
>>> class_label("GAAACCGAAAGGTGCTTC ((((((....)))..)))")
"fulfilled"

Challenge: Reported folding enthalpy at or above -30 kcal/mol? GATCGCTAAGCGATC ((((((...))))))
Response given: not fulfilled

Challenge: Reported folding enthalpy at or above -30 kcal/mol? GCGTACGAAAGTAACCGC ((((((....)))..)))
Response given: fulfilled

Challenge: Reported folding enthalpy at or above -30 kcal/mol? GTGATCCGAAAGGACCAC (((.(((....))).)))
Response given: not fulfilled

Challenge: Reported folding enthalpy at or above -30 kcal/mol? GGACCGCGAAAGCGTTCC (((.(((....))).)))
Response given: fulfilled

Challenge: Reported folding enthalpy at or above -30 kcal/mol? GATCACCAGGGTGATC ((((((....))))))
Response given: not fulfilled

Data provenance is the array DNA melting data of Ke et al. (doi:10.1101/2024.01.08.574731).
